- Tested target: Bcl-2-like protein 10 (Homo sapiens)
- Experiment summary: TR3 peptide-Bcl-B binding displacers, biochemical primary FP assay, phenotype converters (AID 1240);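 also: 0% = Bcl-B with tracer peptide and DMSO and 100% = tracer peptide lacking Bcl-B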
- Run parameters: GST-Bcl-B / FITC-TR3 peptide fluorescence polarization; stronger effect = higher value; compound at 3.75 mg/L
Among all 50,000 compounds or so, about 800 (1.6%) showed an effect of 50% or more. Only a selection was taken, and strong results are over-represented in it overall.
Recorded displacement by entry
API: value field is a number in %; no unit string.

# Molecule, displacement [%]
records = [
    ("O=C(NCc1ccc2c(c1)OCO2)c1ccccc1F", 14.1),
]

// recorded displacement for COc1ccc(/C=C2\SC(=NCc3ccccc3)N(Cc3ccccc3)C2=O)cc1OC : 7.1

# molecule COc1ccc(N2C(=O)NC(=O)/C(=C/c3cn(CCOc4ccccc4OC)c4ccccc34)C2=O)cc1 ; its displacement = 87.6

The molecule identified as COc1cc(/C=C2\SC(=NCc3ccccc3)N(Cc3ccccc3)C2=O)cc(Br)c1O registered its displacement at -5.7

The measured displacement associated with Cc1cccc(N2C(=O)S/C(=C/c3ccc(N(C)C)cc3)C2=O)c1 reads 95.7

Sure, the documented displacement for O=C(c1cccc(F)c1)N1CCN(c2ccc([N+](=O)[O-])cc2)CC1 is 118

* * *

- Tested target: Bcl-2-like protein 10 (Homo sapiens) (UniProt Q9HD36)
- Sequence (Q9HD36 whole entry, looked up): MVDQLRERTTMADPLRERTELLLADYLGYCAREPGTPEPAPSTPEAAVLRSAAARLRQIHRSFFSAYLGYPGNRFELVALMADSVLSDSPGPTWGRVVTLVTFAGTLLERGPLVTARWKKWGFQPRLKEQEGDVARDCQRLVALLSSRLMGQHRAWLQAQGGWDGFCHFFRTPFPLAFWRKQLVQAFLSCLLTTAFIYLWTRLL
- Experiment summary: TR3 peptide-Bcl-B binding displacers, biochemical primary FP assay, phenotype converters (AID 1240);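 also: 0% = Bcl-B with tracer peptide and DMSO and 100% = tracer peptide lacking Bcl-B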
- Run parameters: GST-Bcl-B / FITC-TR3 peptide fluorescence polarization; stronger effect = higher value; compound at 3.75 mg/L
Screen size: about 50,000 compounds; about 800 (1.6%) showed an effect of 50% or more. What follows is part of a selection rich in strong results, with near analogues and random picks from the rest.
Measured quantity: displacement

// recorded displacement for CS(=O)(=O)N(Cc1ccc(C(=O)Nc2ccc(CC#N)cc2)cc1)c1ccccc1 : -7%

Sure, the documented displacement for COc1cc(C2/C(=C(\O)c3ccc(F)cc3)C(=O)C(=O)N2c2nncs2)ccc1O (stereo not given) is 8.3%

Kindly note the recorded displacement for CC(=O)c1ccc(NC(=O)c2ccc3c(c2)C(=O)N(c2ccc(C)c(C)c2)C3=O)cc1 , which is 8.9%

O=C1C(=O)N(c2nncs2)C(c2cccc(Br)c2)/C1=C(\O)c1ccc(F)cc1 (stereo not given) yielded displacement of 16.6%

displacement recorded for this molecule, COc1ccc(C2C(C(=O)c3cccs3)=C(O)C(=O)N2c2nncs2)cc1OC (stereo not given) , is 84.6%

* * *

- Tested target: Bcl-2-like protein 10 (Homo sapiens) (UniProt Q9HD36)
- Experiment summary: TR3 peptide-Bcl-B binding displacers, biochemical primary FP assay, phenotype converters (AID 1240);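 also: 0% = Bcl-B with tracer peptide and DMSO and 100% = tracer peptide lacking Bcl-B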
- Run parameters: GST-Bcl-B / FITC-TR3 peptide fluorescence polarization; stronger effect = higher value; compound at 3.75 mg/L
Out of some 50,000 compounds screened, about 800 (1.6%) showed an effect of 50% or more. For the sample, strong results were picked, then their nearest neighbours and some compounds at random.
Recorded displacement values for a group of compounds are listed next.
Field: numeric (%). Do not append units.

Known results for compounds:
# Compound, Measured quantity, Observed value
data = [
    ("Cc1ccc2c(c1)C1C=CCC1C(c1ccccc1[N+](=O)[O-])N2 (stereo unspecified)", "displacement", 6.9),
    ("COc1ccc2c(c1)C1C=CCC1C(c1ccc([N+](=O)[O-])cc1)N2 (stereo unspecified)", "displacement", -0.8),
    ("c1ccc(C2=Nc3ccccc3NC(c3ccccc3)C2)cc1 (stereo unspecified)", "displacement", -26.7),
    ("Cc1ccc2c(c1)C1C=CCC1C(C(=O)O)N2 (stereo unspecified)", "displacement", 142),
    ("Cc1ccc2c(c1)C1C=CCC1C(c1ccc([N+](=O)[O-])cc1)N2 (stereo unspecified)", "displacement", 12.2),
]

The compound COc1ccc2c(c1)C1C=CCC1C(C(=O)O)N2 (stereo unspecified) , when measured on Bcl-2-like protein 10 (Homo sapiens) (UniProt Q9HD36), yielded displacement of 150
